Recorded values, source PubChem BioAssay AID1159580.

Assay: chemical genetic growth profiling, strain panel (AID 1159580);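 also: tested at 20 µM; growth read once vehicle control cultures reached saturation at 30 °C; 1 = growth at the plate median or of vehicle wells; lower values mean less growth of the strain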
Conditions: S. cerevisiae deletion strains, growth OD, locus YHR129C, strain ARP1
In all, about 5,500 compounds went through this assay and about 2,000 (36%) were called active. Not shown: some 18% with an inconclusive outcome. Rule as the data show it: active = normalized growth mostly below about 0.91 (no sharp cut-off); inconclusive = no clear call, values can overlap the other calls; inactive = mostly above about 0.92. The list shows a part of the results.
// classify into YES for active, NO for inactive

I would be grateful if you could indicate the recorded call for CC(C)c1ccc2c(c1)CCC1C(C)(C(N)=O)CCCC21C (stereo not given) .
NO

I would be grateful if you could indicate the recorded call for CC(CCC(=O)O)[C@H]1CCC2C3CC[C@@H]4CC(=O)CC[C@]4(C)C3C=C[C@@]21C (stereo not given in full) .
NO

I would be grateful if you could indicate the recorded call for CC12CCC(O)CC1CCC1C2[C@H](O)CC2(C)C(C3=CC(=O)OC3)CCC12O (stereo not given in full) .
NO

I would be grateful if you could indicate the recorded call for CC(N=C(NC#N)Nc1ccncc1)C(C)(C)C (stereo not given) .
NO

I would be grateful if you could indicate the recorded call for CC(C)c1ccc2c(c1)CCC1[C@](C)(CN)CCC[C@]21C (stereo not given in full) .
YES

---

Assay: chemical genetic growth profiling, strain panel (AID 1159580);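 also: tested at 20 µM; growth read once vehicle control cultures reached saturation at 30 °C; 1 = growth at the plate median or of vehicle wells; lower values mean less growth of the strain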
Conditions: S. cerevisiae deletion strains, growth OD, locus YHR013C, strain ard1, active compounds read low
Hit rate of the full screen: of about 5,500 compounds, about 2,000 (36%) were called active. Roughly 18% stayed inconclusive and do not appear here. This is one part of the list.
The compounds listed here are annotated with their normalized growth.

Solved cases below.
compound	normalized growth
CN[C@@H]1[C@H](O)[C@H](NC)[C@H]2O[C@@]3(O)C(=O)C[C@@H](C)O[C@H]3O[C@@H]2[C@H]1O	0.993 (inactive)
CC(C)=CCc1c2c(c3occ(-c4ccc(O)c(O)c4)c(=O)c3c1O)C=CC(C)(C)O2	0.947 (inactive)
CCCOc1ccc2nc(NC(=O)OC)[nH]c2c1	1.01 (inactive)
O=C(O)C1=CCCNC1	0.979 (inactive)
CC1(C)CC2C1CC[C@]1(CBr)CCC3C(CC(=O)O)C(=O)O[C@@]32C1 (stereo partly specified)	1.01 (inactive)

// fetch normalized growth given entry CS(=O)(=O)c1ccc([C@@H](O)[C@@H](CO)NC(=O)C(Cl)Cl)cc1
1.05 (inactive)

// fetch normalized growth given entry C/C1=C/CC(C)(C)/C=C/C/C(C)=C/CC1
1 (inactive)

// fetch normalized growth given entry CN1CCN(C(=O)OC2c3nccnc3C(=O)N2c2ccc(Cl)cn2)CC1 (stereo unspecified)
0.98 (inactive)

// fetch normalized growth given entry NC(Cn1ccc(=O)c(O)c1)C(=O)O (stereo unspecified)
1.05 (inactive)

// fetch normalized growth given entry CC12CCC3C(CC3(C)C)C(C)(CCC1=O)O2 (stereo unspecified)
1.01 (inactive)

// fetch normalized growth given entry CC(C)=CCc1c2c(c3occ(-c4ccc(O)cc4)c(=O)c3c1O)C=CC(C)(C)O2
0.755 (active)

---

Assay: chemical genetic growth profiling, strain panel (AID 1159580);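 also: tested at 20 µM; growth read once vehicle control cultures reached saturation at 30 °C; 1 = growth at the plate median or of vehicle wells; lower values mean less growth of the strain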
Conditions: S. cerevisiae deletion strains, growth OD, locus YDL074C, strain BRE1, active compounds read low
About 2,000 (36%) of roughly 5,500 compounds were called active. Not shown: some 18% with an inconclusive outcome. This is one part of the list.
The compounds listed here are annotated with their normalized growth.
// keep it numeric: no unit symbol after the value

Solved cases below.
compound	measured.value
C[n+]1ccccc1/C=N/O	1
Nc1ccc(S(=O)(=O)NC(=O)c2ccccc2)cc1	1.01
CC(C)CCCC(C)[C@H]1CCC2C3CC=C4CC(=O)CC[C@]4(C)C3CC[C@@]21C (some centres not stated)	0.937
O=C(O)c1cccnc1	1.02
O=C(NCO)c1cccnc1	1
CCCN(CCC)S(=O)(=O)c1ccc(C(=O)O)cc1	0.998

// fetch normalized growth given entry CNNC
1.07
